B1: Stu2-HA (wild-type Stu2, 3xHA tagged) [S. cerevisiae] / γ-tubulin (Tub4) [S. cerevisiae (endogenous in yeast extract)] (parent)
chain 1: MSGEEEVDYTTLPLEERLTYKLWKARLEAYKELNQLFRNSVGDISRDDNIQIYWRDPTLFAQYITDSNVVAQEQAIVALNSLIDAFASSSLKNAHNITLISTWTPLLVEKGLTSSRATTKTQSMSCILSLCGLDTSITQSVELVIPFFEKKLPKLIAAAANCVYELMAAFGLTNVNVQTFLPELLKHVPQLAGHGDRNVRSQTMNLIVEIYKVTGNNSDLLEEILFKKLKPIQVKDLHKLFAKVGDEPSSSKMLFEWEKRELEKKRSQEEEARKRKSILSNDEGEYQIDKDGDTLMGMETDMPPSKQQSGVQIDTFSMLPEETILDKLPKDFQERITSSKWKDRVEALEEFWDSVLSQTKKLKSTSQNYSNLLGIYGHIIQKDANIQAVALAAQSVELICDKLKTPGFSKDYVSLVFTPLLDRTKEKKPSVIEAIRKALLTICKYYDPLASSGRNEDMLKDILEHMKHKTPQIRMECTQLFNASMKEEKDGYSTLQRYLKDEVVPIVIQIVNDTQPAIRTIGFESFAILIKIFGMNTFVKTLEHLDNLKRKKIEETVKTLPNFSIASGSTHSTIETNKQTGPMENKFLLKKSSVLPSKRVASSPLRNDNKSKVNPIGSVASASKPSMVAANNKSRVLLTSKSLATPKNVVANSTDKNEKLIEEYKYRLQKLQNDEMIWTKERQSLLEKMNNTENYKIEMIKENEMLREQLKEAQSKLNEKNIQLRSKEIDVNKLSDRVLSLENELRNMEIELDRNKKRNDTNLQSMGTISSYSIPSSTVSSNYGVKSLSSALPFKEEEDVRRKEDVNYERRSSESIGDLPHRVNSLNIRPYRKNGTGVSSVSDDLDIDFNDSFASEESYKRAAAVTSTLKARIEKMKAKSRREGTTRT
chain 2: MGGEIITLQAGQCGNHVGKFLWSQLAKEHAIGTDGLSQLPDSSTERDDDTKPFFRENSRNKFTPRAIMMDSEPSVIADVENTFRGFFDPRNTWVASDGASAGNSWANGYDIGTRNQDDILNKIDKEIDSTDNFEGFQLLHSVAGGTGSGLGSNLLEALCDRYPKKILTTYSVFPARSSEVVVQSYNTILALRRLIEDSDATVVFDNASLLNISGKVFRNPNIDLQHTNQLISTIISSVTNSIRFPSYMYSSMSSIYSTLIPSPELHFLSPSFTPFTSDYIHDDIAHKGHSSYDVMLDLLDPSNSLVSTAMNNPTYFNVYNTIIGNVEPRQISRAMTKLQQRIKFPSWSSSAMHVNIGRRSPYLPLQPNENEVSGMMLSNMSTVVNVFENACNTFDKVFAKGAFLNNYNVGDLFQSMQNVQDEFAESREVVQSLMEDYVAAEQDSYLDDVLVDDENMVGELEEDLDADGDHKLV

Variants of: B1
Assay: co-immunoprecipitation, western blot densitometry
Conditions: with γ-tubulin (Tub4) [S. cerevisiae (endogenous in yeast extract)]; PBS buffer; three biological replicates; parent: 0; read off a plot
MEASUREMENT_NAME: screen value

VARIANT_ANNOTATION: chain 1 K469Q
screen value: 1.5

a. chain 1 K252Q
b. chain 1 K469R
c. chain 1 K252R K469R K870R
## Input Order these by screen value, descending, and give the full ranking. # respond with the labels, arranged in the requested order
## Output a, b, c
(a: 1.8, b: 0.75, c: -3)

1. chain 1 K252Q K469Q K870Q
2. chain 1 K252Q K469Q
3. chain 1 K870Q
4. chain 1 K252R
## Input Hello, I need these entries ordered by screen value, highest reading first. Thanks! Give your ranking as a list of the labels in the requested order.
## Output 1, 2, 4, 3

a. chain 1 K870R
b. chain 1 K252R K469R
## Input // pick min by screen value: a , b Kindly give the label for the entry you pick.
## Output b
